target: SRSF1 (recombinant SRSF1; serine arginine-rich splicing factor 1) (Homo sapiens); construct: recombinant purified SRSF1; RRM1 domain targeted in screening; assay: SPR; format: binding; details: purified SRSF1 variant; unit inferred, M taken from the wild-type value
recorded.metric: Kd (µM)
Quick note: give the figure in µM, leave out the unit.

Task: Quote Kd reported for O=C(/C=C/c1ccc(O)c(O)c1)c1ccc(O)c(O)c1O [TN2008] please.
Output: 37.2

====

biological target: SRSF1 (recombinant SRSF1; serine arginine-rich splicing factor 1) (Homo sapiens, UniProt Q07955); construct: recombinant purified SRSF1; RRM1 domain targeted in screening; assay: SPR (Biacore T100); format: binding
Sequence (Q07955 2-248): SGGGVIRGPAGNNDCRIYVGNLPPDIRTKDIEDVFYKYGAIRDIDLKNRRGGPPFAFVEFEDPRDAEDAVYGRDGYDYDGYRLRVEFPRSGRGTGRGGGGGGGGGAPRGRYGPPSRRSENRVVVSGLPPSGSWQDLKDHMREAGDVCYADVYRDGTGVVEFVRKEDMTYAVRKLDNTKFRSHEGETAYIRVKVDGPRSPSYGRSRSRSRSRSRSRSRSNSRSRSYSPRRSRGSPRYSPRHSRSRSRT
recorded.metric: pKd
Field pKd (float): negative decimal logarithm of the concentration in molar.

Task: Return reported pKd. Input compound: O=C(/C=C/c1ccc(O)c(O)c1)c1ccc(O)c(O)c1O
Output: 5.29

Recorded values, source paper PMC11751439.
